Molecular target: T1, monkey CD22 protein (ACROBiosystems, catalog number SI2-R52Ha) (monkey, UniProt F6W485 20-688)
T1 construct: commercial protein; also called monkey CD22-ECD; monkey CD22-ECD-His
T1 sequence: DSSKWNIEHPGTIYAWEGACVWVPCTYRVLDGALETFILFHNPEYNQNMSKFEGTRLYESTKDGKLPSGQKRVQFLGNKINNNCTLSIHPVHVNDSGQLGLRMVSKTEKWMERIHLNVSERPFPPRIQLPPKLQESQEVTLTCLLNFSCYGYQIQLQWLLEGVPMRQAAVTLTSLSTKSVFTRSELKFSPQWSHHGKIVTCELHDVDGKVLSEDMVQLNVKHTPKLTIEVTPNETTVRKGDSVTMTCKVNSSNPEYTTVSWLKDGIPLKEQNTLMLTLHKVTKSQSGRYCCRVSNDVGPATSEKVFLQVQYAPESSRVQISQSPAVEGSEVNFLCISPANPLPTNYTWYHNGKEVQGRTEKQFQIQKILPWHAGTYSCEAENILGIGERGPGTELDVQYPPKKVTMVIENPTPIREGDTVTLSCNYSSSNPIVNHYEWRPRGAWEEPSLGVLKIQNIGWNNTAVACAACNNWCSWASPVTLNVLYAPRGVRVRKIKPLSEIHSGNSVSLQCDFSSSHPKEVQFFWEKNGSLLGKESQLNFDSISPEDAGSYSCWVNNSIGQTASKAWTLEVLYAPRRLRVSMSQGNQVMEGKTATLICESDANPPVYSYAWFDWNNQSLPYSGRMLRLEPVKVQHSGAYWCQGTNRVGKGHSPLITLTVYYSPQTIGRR
Test: ELISA, coated monkey CD22 protein, antibody 0.01 nM
Recorded OD450 by entry
Value Kind: OD450

• F2.99.1 (antibody, human IgG1, lambda, V domains shown, human-murine chimeric IgG1 lambda; VL name legible) VH: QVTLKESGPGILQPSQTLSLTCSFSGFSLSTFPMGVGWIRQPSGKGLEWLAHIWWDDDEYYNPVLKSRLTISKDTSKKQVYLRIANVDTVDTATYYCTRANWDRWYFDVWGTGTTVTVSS VL: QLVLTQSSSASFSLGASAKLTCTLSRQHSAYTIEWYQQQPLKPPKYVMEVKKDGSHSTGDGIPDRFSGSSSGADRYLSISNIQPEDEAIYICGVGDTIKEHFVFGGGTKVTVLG = 0.07 OD450
• F1.216.2 (antibody, human IgG1, kappa, V domains shown, human-murine chimeric IgG1 kappa) VH: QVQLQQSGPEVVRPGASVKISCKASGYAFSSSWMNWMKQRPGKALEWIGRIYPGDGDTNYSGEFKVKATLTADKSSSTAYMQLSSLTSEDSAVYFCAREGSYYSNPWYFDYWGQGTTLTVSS VL: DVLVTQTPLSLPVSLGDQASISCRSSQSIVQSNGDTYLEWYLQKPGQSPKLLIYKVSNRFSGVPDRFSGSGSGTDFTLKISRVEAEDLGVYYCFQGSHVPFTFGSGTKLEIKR = 2.04 OD450
• F1.245.2 (antibody, human IgG1, kappa, V domains shown, human-murine chimeric IgG1 kappa) VH: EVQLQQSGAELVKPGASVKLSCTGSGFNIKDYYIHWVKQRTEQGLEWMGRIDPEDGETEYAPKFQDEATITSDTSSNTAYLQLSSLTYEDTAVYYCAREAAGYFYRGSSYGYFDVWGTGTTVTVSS VL: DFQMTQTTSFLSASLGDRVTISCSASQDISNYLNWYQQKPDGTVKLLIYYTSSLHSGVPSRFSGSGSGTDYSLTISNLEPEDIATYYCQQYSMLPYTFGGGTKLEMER = 0.06 OD450
